- Tested on: cultured rat cortical astrocytes
- assay details: Hypotonicity (swelling)-induced glutamate release, enzymatic fluorescence assay
- Assay type: cell-based
- experimental parameters: 214 mOsM; same concentrations as for ATP-induced release
property label: effect on glutamate release evoked by hypoosmotic challenge

| smi | target desc | readout value |
| --- | --- | --- |
| O=C(O)c1ccccc1Nc1cccc(C(F)(F)F)c1 | cultured rat cortical astrocytes | decreased |
| O=C(O)c1cc([N+](=O)[O-])ccc1NCCCc1ccccc1 | cultured rat cortical astrocytes | decreased |
| C/C=C(/C)C(=O)O[C@H]1C(C)=C2[C@H]([C@@H]1OC(=O)CCCCCCC)[C@@](C)(OC(C)=O)C[C@H](OC(=O)CCC)[C@@]1(O)[C@H]2OC(=O)[C@@]1(C)O | cultured rat cortical astrocytes | failed to affect |
| O=C(O)CN(CC(=O)O)c1ccccc1OCCOc1ccccc1N(CC(=O)O)CC(=O)O | cultured rat cortical astrocytes | failed to affect |
